# Target Of Assay: M4 muscarinic receptor (Homo sapiens)
# Construct: expressed in transfected cells; host or cells: CHO (M4-CHO)
# Sequence (P08173 whole entry): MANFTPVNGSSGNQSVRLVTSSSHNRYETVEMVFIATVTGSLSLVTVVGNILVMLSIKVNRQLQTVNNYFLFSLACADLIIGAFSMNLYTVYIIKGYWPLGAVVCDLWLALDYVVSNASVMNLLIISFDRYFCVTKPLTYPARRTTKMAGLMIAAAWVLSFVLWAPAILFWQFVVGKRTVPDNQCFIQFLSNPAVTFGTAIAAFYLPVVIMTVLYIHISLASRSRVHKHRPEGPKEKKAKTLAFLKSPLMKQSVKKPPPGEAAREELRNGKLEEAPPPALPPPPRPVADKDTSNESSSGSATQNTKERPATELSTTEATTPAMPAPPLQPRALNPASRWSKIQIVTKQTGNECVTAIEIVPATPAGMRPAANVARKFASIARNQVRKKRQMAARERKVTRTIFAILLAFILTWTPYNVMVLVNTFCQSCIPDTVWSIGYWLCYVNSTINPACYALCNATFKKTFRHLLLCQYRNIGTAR
# Assay Procedure: Functional mobilization of intracellular calcium (FLIPR), M4-CHO cells
# Format: cell-based
# Condition: 100% efficacy is the maximum response obtained using Carbachol as a control
Measurement Type: Emax

Compound	Emax
CCOC(=O)N1CCC(N2CCC3(CC2)CN(C(=O)N(CC)CC)Cc2ccccc23)CC1	< 25%
CCOC(=O)N1C2CCC1CC(N1CCC3(CC1)CN(S(=O)(=O)c1ccc(C(F)(F)F)cc1)Cc1ccccc13)C2 (stereo not shown)	25 to 100%
CCOC(=O)N1C2CCC1CC(N1CCC3(CC1)CN(C(=O)OCCOC)Cc1ccccc13)C2 (stereo not shown)	25 to 100%
CC(=O)N1Cc2ccccc2C2(CCN(CC3CCN(C(=O)O[C@H]4CCOC4)CC3)CC2)C1	< 25%
CCOC(=O)N1C2CCC1CC(N1CCC3(CC1)CN(S(=O)(=O)c1cccc(F)c1)Cc1ccccc13)C2 (stereo not shown)	25 to 100%
CCOC(=O)N1CCC(CN2CCC3(CC2)CN(C(=O)OC2CCC2)Cc2ccccc23)CC1	25 to 100%

Please find the next compound below.
Query: # input compound: `CCOC(=O)N1CCC(CN2CCC3(CC2)CN(C(=O)Nc2ccccc2)Cc2ccccc23)CC1` ; wanted: its Emax
Reply: 25 to 100%

* * *

# Target Of Assay: M1 muscarinic receptor (Homo sapiens, UniProt P11229)
# Construct: expressed in transfected cells; host or cells: CHO (M1-CHO)
# Sequence (P11229 whole entry): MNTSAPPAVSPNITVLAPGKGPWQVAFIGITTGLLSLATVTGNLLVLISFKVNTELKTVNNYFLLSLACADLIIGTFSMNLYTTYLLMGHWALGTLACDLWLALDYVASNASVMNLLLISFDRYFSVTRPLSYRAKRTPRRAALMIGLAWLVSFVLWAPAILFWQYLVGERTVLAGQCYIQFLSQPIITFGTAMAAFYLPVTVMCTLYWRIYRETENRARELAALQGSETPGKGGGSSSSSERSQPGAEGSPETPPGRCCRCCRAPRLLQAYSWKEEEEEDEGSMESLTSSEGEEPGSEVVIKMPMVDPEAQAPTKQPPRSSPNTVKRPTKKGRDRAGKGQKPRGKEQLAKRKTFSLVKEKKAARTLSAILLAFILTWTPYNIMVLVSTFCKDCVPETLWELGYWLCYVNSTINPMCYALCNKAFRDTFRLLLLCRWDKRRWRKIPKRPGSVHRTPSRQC
# Assay Procedure: Functional mobilization of intracellular calcium (FLIPR), M1-CHO cells
# Format: cell-based
# Condition: 100% efficacy is the maximum response obtained using Carbachol as a control
Kindly supply the reported Emax values for the records listed here.

Compound	Emax
CCOC(=O)N1C2CCC1CC(N1CCC3(CC1)CN(C(=O)C1CC1)Cc1ccccc13)C2.Cl (centres unmarked) [compound 224, hydrochloride]	25 to 100%

I would be grateful if you could provide Emax for each of the following entries.
1. CCOC(=O)N1C2CCC1CC(N1CCC3(CC1)CN(C(=O)CC(C)(C)C)Cc1ccccc13)C2 (centres unmarked) [compound 162]
2. CC(=O)N1Cc2ccccc2C2(CCN(CC3CCCCO3)CC2)C1 (centres unmarked) [compound 58]
3. CCOC(=O)N1C2CCC1CC(N1CCC3(CC1)CN(C(=O)c1ccc(F)cc1)Cc1ccccc13)C2 (centres unmarked) [compound 71]
4. O=C1c2ccccc2C2(CCN(C3CCCCCC3)CC2)N1Cc1ccccc1 [compound 347]
5. COc1ccc(CN2CCC3(CC2)CN(C(C)=O)Cc2ccccc23)cc1F [compound 107]
6. CCOC(=O)N1C2CCC1CC(N1CCC3(CC1)CN(C(=O)c1snnc1C(C)C)Cc1ccccc13)C2 (centres unmarked) [compound 220]
7. COC(=O)N1C2CCC1CC(N1CCC3(CC1)CN(C(C)=O)Cc1ccccc13)C2 (centres unmarked) [compound 140]

Reply:
1. 25 to 100%
2. < 25%
3. 25 to 100%
4. 25 to 100%
5. < 25%
6. 25 to 100%
7. 25 to 100%

* * *

Kindly supply the reported Emax values for the records listed here.
# Target Of Assay: M1 muscarinic receptor (Homo sapiens)
# Construct: expressed in transfected cells; host or cells: CHO (M1-CHO)
# Assay Procedure: Functional mobilization of intracellular calcium (FLIPR), M1-CHO cells
# Format: cell-based
# Condition: 100% efficacy is the maximum response obtained using Carbachol as a control

Some compounds with known Emax results, for comparison:
Compound	Emax
CC(=O)N1Cc2ccccc2C2(CCN(CC3CCCOC3)CC2)C1 (stereo not drawn) [compound 266]	< 25%
COCCOC(=O)N1Cc2ccccc2C2(CCN(C3CC4CCC(C3)N4C(=O)OCCOC)CC2)C1 (stereo not drawn) [compound 96]	25 to 100%
COc1ccc(CN2CCC3(CC2)CN(C(C)=O)Cc2ccccc23)cn1 [compound 37]	25 to 100%
COCCOC(=O)N1C2CCC1CC(N1CCC3(CC1)CN(C(=O)OC)Cc1ccccc13)C2 (stereo not drawn) [compound 183]	25 to 100%
CCON=C1CCC(N2CCC3(CC2)CN(C(C)=O)Cc2ccccc23)CC1 (stereo not drawn) [compound 196]	25 to 100%

I would be grateful if you could provide Emax for each of the following entries.
1. CCOC(=O)N1CCC(N2CCC3(CC2)CN(C(=O)CC)Cc2ccccc23)CC1 [compound 6]
2. CS(=O)(=O)N1Cc2ccccc2C2(CCN(C3CC4CCC(C3)N4C(=O)O[C@@H]3CCOC3)CC2)C1 (stereo partly drawn) [compound 222]

Reply:
25 to 100%
25 to 100%

I would be grateful if you could provide Emax for each of the following entries.
1. CCOC(=O)N1C2CCC1CC(N1CCC3(CC1)CN(C(=O)CC(F)(F)F)Cc1ccccc13)C2 (stereo not drawn) [compound 126]
2. CCOC(=O)N1CCC(N2CCC3(CC2)CN(C(=O)Nc2c(C)noc2C)Cc2ccccc23)CC1 [compound 84]
3. COc1cccc(CN2CCC3(CC2)CN(C(C)=O)Cc2ccccc23)c1 [compound 121]
4. CC(C)OC(=O)N1Cc2ccccc2C2(CCN(C3CC4CCC(C3)N4C(=O)O[C@@H]3CCOC3)CC2)C1 (stereo partly drawn) [compound 195]
5. CCOC(=O)N1C2CCC1CC(N1CCC3(CC1)CN(C(C)=O)Cc1ccccc13)C2 (stereo not drawn) [compound 197]
6. CCOC(=O)N1C2CCC1CC(N1CCC3(CC1)CN(C(=O)C1CCCCC1)Cc1ccccc13)C2 (stereo not drawn) [compound 193]
7. CC(=O)N1Cc2ccccc2C2(CCN(CC3CCN(C(=O)O[C@@H]4CCOC4)CC3)CC2)C1 [compound 45]

Reply:
1. 25 to 100%
2. 25 to 100%
3. < 25%
4. 25 to 100%
5. 25 to 100%
6. 25 to 100%
7. < 25%
